Recorded values, source ChEMBL document CHEMBL3885861.

Here, each record is paired with measured Mono data.
Organism: Rattus norvegicus
Test: Open TG-GATES - Regimen: Single
Type: toxicity, organism-based, Sprague-Dawley
Parameters: regimen Single, gender Male, age 6 weeks
Conditions: in vivo, po, 0 mg/kg, 6 h, tissue Blood, route gavage, dose level Control
Readout: Mono (%)

CCc1cc(C(N)=S)ccn1 [ETHIONAMIDE]	7.6
Cn1c(=O)c2[nH]cnc2n(C)c1=O.O [THEOPHYLLINE]	2.6
COc1ccc(Cc2nccc3cc(OC)c(OC)cc23)cc1OC [PAPAVERINE]	2.2
C[C@H](CS)C(=O)N1CCC[C@H]1C(=O)O [CAPTOPRIL]	6.2
